Recorded values, source patent US20110158985A1.

TARGET_SYSTEM: RSV F protein (purified) (respiratory syncytial virus)
ASSAY_SUMMARY: SPR (BIAcore), F protein immobilised
Field: koff. Provide a value for each of the binders that follow.
State the result as a value with its unit after it.

Qu. What value of koff has been reported for the following binder? A13c4 Fab (Fab, V domains shown) VH: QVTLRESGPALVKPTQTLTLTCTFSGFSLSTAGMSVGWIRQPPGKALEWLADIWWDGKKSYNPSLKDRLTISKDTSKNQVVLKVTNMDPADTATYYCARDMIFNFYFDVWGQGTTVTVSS VL: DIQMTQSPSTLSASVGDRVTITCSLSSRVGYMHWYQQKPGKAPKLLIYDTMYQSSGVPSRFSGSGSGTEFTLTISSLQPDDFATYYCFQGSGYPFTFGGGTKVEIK
Ans. 0.00028 s⁻¹

Qu. What value of koff has been reported for the following binder? M3H9 Fab (Fab, V domains shown) VH: QVTLRESGPALVKPTQTLTLTCTFSGFSLSTAGMSVGWIRQPPGKALEWLADIWWDDKKDYNPSLKSRLTISKDTSKNQVVLKVTNMDPADTATYYCARDMIFNWYFDVWGQGTTVTVSS VL: DIQMTQSPSTLSASVGDRVTITCSASSSVGYMHWYQQKPGKAPKLLIYDTYKQTSGVPSRFSGSGSGTEFTLTISSLQPDDFATYYCFQGSGYPFTFGGGTKVEIK
Ans. 0.000338 s⁻¹

Qu. What value of koff has been reported for the following binder? P12f4 Fab (Fab, V domains shown) VH: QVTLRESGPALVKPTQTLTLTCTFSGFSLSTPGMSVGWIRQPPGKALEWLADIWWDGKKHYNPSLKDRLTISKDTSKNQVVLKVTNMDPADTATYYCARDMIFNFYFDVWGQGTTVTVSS VL: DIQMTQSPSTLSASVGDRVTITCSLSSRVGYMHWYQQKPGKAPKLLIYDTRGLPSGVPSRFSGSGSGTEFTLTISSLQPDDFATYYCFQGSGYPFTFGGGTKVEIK
Ans. 0.000299 s⁻¹

Qu. What value of koff has been reported for the following binder? A1e9 Fab (Fab, V domains shown, also called Ale9) VH: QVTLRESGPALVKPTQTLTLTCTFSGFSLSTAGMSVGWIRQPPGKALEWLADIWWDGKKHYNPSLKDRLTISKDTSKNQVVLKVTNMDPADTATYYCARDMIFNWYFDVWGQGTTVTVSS VL: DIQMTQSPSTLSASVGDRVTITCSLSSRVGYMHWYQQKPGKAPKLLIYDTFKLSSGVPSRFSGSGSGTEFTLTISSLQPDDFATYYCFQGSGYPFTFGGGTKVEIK
Ans. 0.000453 s⁻¹

Qu. What value of koff has been reported for the following binder? 1X-493L1FR Fab (Fab, V domains shown, also called IX-493L1FR) VH: QVTLRESGPALVKPTQTLTLTCTFSGFSLSTSGMSVGWIRQPPGKALEWLADIWWDDKKDYNPSLKSRLTISKDTSKNQVVLKVTNMDPADTATYYCARSMITNWYFDVWGQGTTVTVSS VL: DIQMTQSPSTLSASVGDRVTITCSASSSVGYMHWYQQKPGKAPKLLIYDTSKLASGVPSRFSGSGSGTEFTLTISSLQPDDFATYYCFQGSGYPFTFGGGTKVEIK
Ans. 0.00065 s⁻¹
